# assay_procedure: Hydrodistillation of lemon essential oil doped with pyrrolizidine alkaloids; alkaloids assayed in distillate and aqueous phase by UPLC-HRMS/TOF
# Type: physicochemical
# condition: Tableau 4; Huile essentielle de Citron dopée (as titled); Concentration théorique; duplicate 1
Recorded φ Aqueuse (résidu de distillation) CT [ppm] for the following compounds
Give the quantity in ppm, number only.

>  <compound>
CC(C)[C@](O)(C(=O)OCC1=CCN2CC[C@@H](O)[C@@H]12)[C@@H](C)O (stereo in doubt)

>  <unit_abbrev>
ppm

>  <quantitative_result>
0.550

$$$$
>  <compound>
C/C=C1/C[C@@H](C)[C@](O)(CO)C(=O)OCC2=CC[N@@+]3([O-])CC[C@@H](OC1=O)[C@@H]23

>  <unit_abbrev>
ppm

>  <quantitative_result>
0.457

$$$$
>  <compound>
CC(C)[C@@](O)(C(=O)OCC1=CC[N+]2([O-])CC[C@@H](O)[C@@H]12)[C@H](C)O (stereo partly shown)

>  <unit_abbrev>
ppm

>  <quantitative_result>
0.028

$$$$

Read the next record carefully.
φ Aqueuse (résidu de distillation) CT [ppm] for "C/C=C1\C[C@@H](C)[C@](O)(CO)C(=O)OCC2=CCN3CC[C@@H](OC1=O)[C@@H]23" is 0.797
